PARAMETER_MEASURED: intrinsic clearance, human liver microsomes (mL/min/kg)
Return type: number; implicit unit mL/min/kg.

>>> df
                            compound  unit_name  obs_value
0      Brc1nnc(N2CCC(OC3CCCC3)CC2)s1  mL/min/kg       77.3
1  Cc1ccccc1N(CC(=O)N(C)C)S(C)(=O)=O  mL/min/kg       6.35

Data request: Recorded intrinsic clearance, human liver microsomes for O=C(Nc1ccc2c(c1)OCCCO2)c1cnn(Cc2ccccc2)c1 , please?
Data returned: 6.05

Data request: Thanks! And CCCCCCCC/C(=C\CCCCCCCC(=O)O)[N+](=O)[O-] ?
Data returned: 42.9

Data request: What do you have for Cc1nn(C)c2ncc(C(=O)Nc3ccc4c(c3)CCO4)cc12 ?
Data returned: 8.12

Data request: Repeat for the following compound: CC(C(=O)N1CCc2sccc2C1)N1CCCN(c2ccccc2C#N)CC1 (configuration not stated)
Data returned: 2130

Data request: Record: CN(NC(=O)c1ccn(-c2ccccc2)n1)c1ccccc1
Data returned: 82.3

Data request: Quick one: O=C(c1ccccc1-n1cccn1)N1CCN(Cc2cccnc2)CC1
Data returned: 56

Data request: Follow-up item: COCC(=O)Nc1nc(C)c(C)s1
Data returned: 18.9

* * *

Each record here notes measured MDR1-MDCK efflux ratio.
// response body must contain only the number

Data request: Find the recorded MDR1-MDCK efflux ratio belonging to Cc1cc(C(=O)N(C)CC2CCN(CCO)CC2)cc(C)n1 and report it.
Data returned: 1.95

Data request: Next up: CN(C)c1cccc(Cn2ccnc2-c2ccc(O)cc2)c1
Data returned: 3.77

Data request: What do you have for C[C@H](Cc1cc2c(c(C(N)=O)c1)N(CCCO)CC2)NCCOc1ccccc1OCC(F)(F)F ?
Data returned: 27.4

Data request: Same question, CC(=O)Nc1cccc(OC(=O)N2CCOCC2)c1 this time
Data returned: 2.62

Data request: Try this molecule next: CS(=O)(=O)CCNc1ccc2ccc(F)cc2n1
Data returned: 0.652

* * *

PARAMETER_MEASURED: fraction unbound, human plasma
The answer should be written as a number, with no unit following it.

Data request: Which fraction unbound, human plasma value is on record for C=CC(=O)N1CCC(CNc2ncnc(N)c2-c2ccc(Oc3ccccc3)cc2)CC1 ?
Data returned: 0.0566

* * *

Reported intrinsic clearance, rat liver microsomes is given for each of the following compounds.

>>> df
           compound_structure_string         obs_value
0          Cc1noc(-c2ccccc2C(=O)O)n1  ≤ 10.7 mL/min/kg
1  CCc1nc(C)cc(N2CCCC3(CCNCC3)CC2)n1  ≤ 10.7 mL/min/kg

As a next step, examine the compound that follows.
Data request: For the compound Cc1ccc(C(=O)Nc2cccc(C(=O)N(C)C)c2)cn1 , what intrinsic clearance, rat liver microsomes is on record?
Data returned: ≤ 10.7 mL/min/kg

* * *

Entries annotated with measured intrinsic clearance, rat liver microsomes

// worked examples, intrinsic clearance, rat liver microsomes included
>>> df
                  compound_structure_string       obs_value
0  Cn1ccnc1CN(C(=O)c1[nH]c2ccccc2c1Cl)C1CC1  2250 mL/min/kg
1  O=c1[nH]c2ccccc2n1C1CCN(Cc2csc(COc3ccc(F)cc3)n2)CC1  1090 mL/min/kg

Next compound, intrinsic clearance, rat liver microsomes to be filled in.
Data request: What intrinsic clearance, rat liver microsomes value was documented for this compound, COc1ccc(-c2cn3c4ccccc4nc3n2CCO)cc1 ?
Data returned: 1190 mL/min/kg

* * *

Measured intrinsic clearance, human liver microsomes accompanies every entry in the list below.

Consider the worked cases shown below.
>>> print(df.to_string())
                  compound_structure_string         obs_value
0  N#Cc1ccc(NS(=O)(=O)c2c[nH]c3nc(Cl)ccc23)c(F)c1  ≤ 4.74 mL/min/kg
1  Cc1ccc(S(=O)(=O)N2CCC[C@H](C(=O)NC3CCOCC3)C2)cc1  ≤ 4.74 mL/min/kg

As a next step, examine the compound that follows.
Data request: Any idea what intrinsic clearance, human liver microsomes was measured for CCc1nc(CNc2ccc(C#N)nc2)cs1 ?
Data returned: ≤ 4.74 mL/min/kg

* * *

Binning scheme for MDR1-MDCK efflux ratio: bottom bin = under 0.7, middle bin = from 0.7 up to 3, top bin = 3 and over

Completed entries (count: 4):
                                   compound  category_label
0  N#Cc1cc(F)c(NS(=O)(=O)c2c[nH]c3cc(Cl)ccc23)cc1F      middle bin
1  COc1ccc(CNc2c(-c3ccc(OC)c(OC)c3)nc3cnccn23)cc1      middle bin
2  CC(C(=O)Nc1ccccc1)N1CCCC(c2nc3ccccc3o2)C1 (stereo unspecified)      middle bin
3   COc1ccccc1/C=C/CN1C[C@H]2CCCN2C[C@@H]1C      middle bin

Data request: Returns: class label. Input: CCOc1cccc(-c2cccc(N)n2)c1
Data returned: bottom bin

Data request: Would you kindly repeat that for O[C@H]1CC[C@H](Nc2ncc3nc(Nc4c(F)cc(F)cc4F)n([C@H]4CCOC4)c3n2)CC1 ?
Data returned: top bin

Data request: Another: COCC(=O)Nc1ccc(NC(=O)Cc2ccc(C(F)(F)F)cc2)cc1
Data returned: middle bin

Data request: Also C=CC(=O)Nc1cc(-n2c(=O)ccc3cnc4ccc(-c5ccc(NS(C)(=O)=O)cc5)cc4c32)ccc1C , if possible.
Data returned: top bin

Data request: Subsequent entry: CS(=O)(=O)c1ccc(-c2cnc(NCc3ccco3)n3cnnc23)cc1
Data returned: top bin

Data request: Another compound to look at: O=C(/C=C/c1ccc(Cl)cc1)N1CCC2(CC1)CN(Cc1ccc(Cl)c(Cl)c1)C(=O)O2
Data returned: middle bin

Data request: Same again, this time with CC(C)C(=O)N1CCC(Nc2ncnc3ccsc23)CC1
Data returned: top bin

Data request: And COc1cc(CN2CCC(C(=O)N3CCOCC3)CC2)ccc1C ?
Data returned: middle bin

Data request: Queued: CCOc1cc(CC(=O)N[C@@H](CC(C)C)c2ccccc2N2CCCCC2)ccc1C(=O)O
Data returned: top bin

Data request: Follow-up entry: Cc1cncc(CN2CCC(=C3c4ccc(Cl)cc4CCc4cccnc43)CC2)c1
Data returned: middle bin

* * *

Here, each record is paired with measured intrinsic clearance, rat liver microsomes data.
Give just the numeric value; mL/min/kg need not be written.

Example entries and their recorded answers appear below.
In [3]: df
Out[3]:
                                   compound  obs_value
0  Fc1ccc(F)c(CN2CCN(Cc3ccc4c(c3)OCO4)CC2)c1        409
1  O=S(=O)(c1cn[nH]c1)N1CCCC(c2cccc(-c3cccc(Cl)c3)n2)C1 (stereo not drawn)        394
2  CC(=O)N1CCN([C@H]2CCN(C(=O)c3cc4cc(C)ccc4o3)CC[C@@H]2O)CC1        153
3           O=C(NCC1CCC1)c1ccc(-n2ccnc2)nn1       50.3
4  COCc1noc(CNC(=O)N(C)[C@@H](C)c2ccccc2)n1       63.5

Data request: Give its intrinsic clearance, rat liver microsomes value. Item: CNC(=O)c1ccc(CN(C)c2c(F)cc(C#N)cc2F)cc1
Data returned: 238

Data request: Next: O=C(Cc1ccc2c(c1)OCCO2)NC1CCCCCC1
Data returned: 927

Data request: What about N#Cc1ccccc1CN1C(=O)CCC1=O ?
Data returned: 20.4

* * *

Reported intrinsic clearance, rat liver microsomes values for a set of compounds
Lab book: enter the figure in mL/min/kg, no units written.

                  compound_structure_string  unit_name  obs_value
0  CS(=O)(=O)CCc1nc(C2(c3ccccc3)CC2)nn1-c1ccccc1  mL/min/kg        131
1  CSc1ncccc1C(=O)Nc1ccc(-c2nnc(C)[nH]2)cc1  mL/min/kg       44.1

Data request: For the compound CNC(=O)Cn1ccc2cc(OC)ccc21 , what intrinsic clearance, rat liver microsomes is on record?
Data returned: 99.9

* * *

PARAMETER_MEASURED: fraction unbound, rat plasma
The answer should be a number; do not append a unit.

Example entries and their recorded answers appear below.
>>> print(df.to_string())
                                   molecule  obs_value
0  N#Cc1ccc(COc2cccc(C3CCN(Cc4nc5ccc(C(=O)O)cc5n4C[C@@H]4CCO4)CC3)n2)c(F)c1     0.0205
1  CC(C)(C)C(=O)N1CCC(Cc2ccc(-c3cccs3)cc2)(C(=O)N2CCCC2)CC1     0.0102
2  O=C(Nc1cccc2ncccc12)[C@H]1CCCN(S(=O)(=O)c2ccccc2)C1      0.123

Data request: Quick one: fraction unbound, rat plasma of COc1ccc([C@H]2CN(C(C)=O)[C@@H]3CCCN(Cc4cccc(F)c4)[C@H]23)cc1 ?
Data returned: 0.0393

Data request: Queued: Cn1cc(Nc2nccc(N3CC4CCC(C3)N4C(=O)[C@@H]3CC3(F)F)n2)cn1
Data returned: 0.612

Data request: Quick one: COCCc1noc(CN2CC(c3ccccc3)(c3ccccc3)CCC2=O)n1
Data returned: 0.179

Data request: // query: Cc1ncsc1C(=O)N1CCCCC1c1nc(N)ncc1-c1cccc(C(F)(F)F)c1 (configuration not stated)
Data returned: 0.0729

Data request: Also CC1(C)CC(=O)C2=C(C1)NC(=O)CC2c1ccc(Br)cc1 (configuration not stated) ?
Data returned: 0.088

Data request: Please give the result for COc1ccccc1-c1cc(NC(=O)c2cccc(N3CCNC3=O)c2)[nH]n1 too.
Data returned: 0.00181

Data request: Next molecule: O=C(CCNC(=O)c1ccc(OC(F)(F)F)cc1)N[C@@H]1CCCc2ccccc21
Data returned: 0.0427

Data request: Also COc1nc2sc(C(=O)NC3CC3)c(N)c2c(C)c1Cl , if possible.
Data returned: 0.0283

Data request: Also, CC#CC(=O)N1CC[C@@H](n2c(=O)n(-c3ccc(Oc4ccccc4)cc3)c3c(N)ncnc32)C1 please.
Data returned: 0.0467

Data request: Now consider Cc1nccc(-c2cn(Cc3ccccc3)c3cnccc23)n1 and answer again.
Data returned: 0.161

Data request: Same read-out for CC(C)NCC(O)COc1cccc2ccccc12 (configuration not stated) ?
Data returned: 0.223
